Assay: Cmax in Sprague-Dawley rat at 1 mg/kg, po after 24 hrs by LC/MS/MS method
Assay type: ADME, organism-based
Parameters: dose 1 mg/kg, route oral
Conditions: in vivo
experimental endpoint: Cmax (nM)
One number for each entry, in nM.

Inquiry: Using the record for CCCNC(=O)c1cn2ncnc(Nc3cc(C(=O)NC4CC4)ccc3C)c2c1C [BMS-582949] , state its measured Cmax.
Reply text: 800

###

Experiment: Bioavailability in Sprague-Dawley rat at 1 mg/kg, po after 24 hrs by LC/MS/MS method
Assay type: ADME, organism-based
Conditions: in vivo
experimental endpoint: bioavailability (%)
One number for each entry, in %.

Inquiry: Using the record for CCCNC(=O)c1cn2ncnc(Nc3cc(C(=O)NC4CC4)ccc3C)c2c1C , state its measured bioavailability.
Reply text: 55
